Listed here are compounds together with their documented growth.
tested on: RPMI-8226 leukemia; assay: NCI-60 one-dose screen, 48 h (100 = growth as untreated, 0 = no growth, -100 = all killed); conditions: 10 µM unless noted
About 83,000 compounds went through this panel and 20% of them were active in at least one assay; those are over-represented in the sample as a whole. Activity calls are given as the source filed them. The calls were made as follows: active = growth percent below 10; inactive = the rest.

Some compounds with known growth results, for comparison:
compound | growth
NC(=O)c1cccc(-c2ccccc2N2CCCCC2)c1 | 74.2% (inactive)
CC(=O)c1c[nH]c2ccc(-c3ccnc(Nc4ccc(NC(=O)c5cccc(F)c5)c(CN5CCOCC5)c4)n3)cc12 | -25.9% (active)
Fc1ccc(C2CC(c3cccc(Nc4ccncc4)c3)=NN2c2ccc(Cl)cc2)cc1 (centres undefined) | 28% (inactive)

Shifting focus to the compound that follows.
Task: Query (compound): C=C(C)[C@H]1CC/C(C)=C/CC[C@]2(C)O[C@H]2CC/C(COC(=O)[C@@H](OC(C)=O)[C@H](NC(=O)c2ccccc2)c2ccccc2)=C\[C@@H]1O ; field requested: growth
Result: 54.8% (inactive)
